Target Under Test: Adenosine receptor A3 (Homo sapiens)
Sequence (whole entry): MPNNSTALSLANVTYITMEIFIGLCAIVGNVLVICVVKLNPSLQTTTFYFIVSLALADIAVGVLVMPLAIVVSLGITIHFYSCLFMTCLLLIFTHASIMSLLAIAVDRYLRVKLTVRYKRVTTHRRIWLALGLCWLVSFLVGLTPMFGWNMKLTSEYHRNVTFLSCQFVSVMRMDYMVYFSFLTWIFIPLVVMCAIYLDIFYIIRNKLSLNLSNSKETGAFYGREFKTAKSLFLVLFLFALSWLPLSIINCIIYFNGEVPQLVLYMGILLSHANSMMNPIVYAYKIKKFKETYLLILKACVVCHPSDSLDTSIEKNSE
Experiment Description: Displacement of [3H]PSB-11 from human recombinant adenosine A3 receptor expressed in CHO cells at 1 uM
Type: cell-based
Label condition met for high-side inhibition (at or above 30%) and condition not met for low-side inhibition (below it).

Line Notation: CCCn1c(=O)[nH]c2nc(-c3ccc(S(=O)(=O)N4CCN(Cc5cccc(F)c5)CC4)cc3)[nH]c2c1=O
Class Name: condition met

Line Notation: CCn1c(=O)[nH]c2nc(-c3ccc(S(=O)(=O)N4CCN(Cc5ccc(OC)cc5)CC4)cc3)[nH]c2c1=O
Class Name: condition not met

Line Notation: C#CCn1c(=O)[nH]c2nc(-c3ccc(S(=O)(=O)N4CCN(c5ccc(Cl)cc5)CC4)cc3)[nH]c2c1=O
Class Name: condition met

Line Notation: CCn1c(=O)[nH]c2nc(-c3ccc(S(=O)(=O)N4CCN(Cc5ccc(F)cc5)CC4)cc3)[nH]c2c1=O
Class Name: condition not met

Line Notation: CCn1c(=O)[nH]c2nc(-c3ccc(S(=O)(=O)N4CCN(Cc5ccc(C)cc5)CC4)cc3)[nH]c2c1=O
Class Name: condition not met

Line Notation: CCCn1c(=O)[nH]c2nc(-c3ccc(S(=O)(=O)N4CCN(Cc5ccc(Cl)cc5)CC4)cc3)[nH]c2c1=O
Class Name: condition not met

Consider the record given below.
Input line: Does CCCn1c(=O)[nH]c2nc(-c3ccc(S(=O)(=O)N4CCN(c5ccc(OC)cc5)CC4)cc3)[nH]c2c1=O have a reported inhibition of at least 30%?
Output line: condition not met
